target: URAT1 (Homo sapiens (Human)); test: Uptake of [14C] uric acid using HEK-URAT1; format: cell-based; conditions: 2 min; [14C] uric acid uptake into URAT1 stably expressed HEK293 cells, 10 μM test compound, 5 μM uric acid, 2 minutes, 37° C.; uptake without test compound = 100%; read-out: % control (10 μM)
Sequence (Q96S37 whole entry): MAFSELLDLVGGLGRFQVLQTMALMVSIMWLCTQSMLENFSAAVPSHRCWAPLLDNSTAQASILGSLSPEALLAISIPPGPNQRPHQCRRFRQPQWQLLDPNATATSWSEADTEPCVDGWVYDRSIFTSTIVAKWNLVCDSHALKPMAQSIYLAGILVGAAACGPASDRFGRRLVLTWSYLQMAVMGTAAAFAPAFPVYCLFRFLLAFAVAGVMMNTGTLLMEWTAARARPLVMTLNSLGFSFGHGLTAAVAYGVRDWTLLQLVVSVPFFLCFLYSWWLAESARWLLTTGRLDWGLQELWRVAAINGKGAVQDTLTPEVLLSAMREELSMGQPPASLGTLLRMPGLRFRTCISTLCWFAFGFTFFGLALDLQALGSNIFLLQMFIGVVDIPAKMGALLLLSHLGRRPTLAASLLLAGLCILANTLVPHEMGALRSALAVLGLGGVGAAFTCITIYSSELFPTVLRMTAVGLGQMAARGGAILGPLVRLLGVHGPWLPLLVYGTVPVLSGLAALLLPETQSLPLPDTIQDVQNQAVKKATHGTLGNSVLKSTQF
readout.kind: remaining activity at 10 µM (%)
Record the value in %, omitting the unit from your answer.

A selection of reference data follows.
[
  {
    "molecule": "CC(C)(Sc1ccc2cnsc2c1-c1ccc(C#N)cc1)C(=O)O [Example 28]",
    "readout.kind": "remaining activity at 10 µM",
    "units.symbol": "%",
    "readout.number": 0.1
  },
  {
    "molecule": "N#Cc1ccc(-c2c(SC3(C(=O)O)CCC3)ccc3cnsc23)cc1 [Example 66]",
    "readout.kind": "remaining activity at 10 µM",
    "units.symbol": "%",
    "readout.number": 1.8
  },
  {
    "molecule": "CC(C)c1ccc(-c2c(SC(C)(C)C(=O)O)ccc3cnsc23)cc1 [Example 76]",
    "readout.kind": "remaining activity at 10 µM",
    "units.symbol": "%",
    "readout.number": 12.7
  },
  {
    "molecule": "CC(C)(Oc1ccc2ccccc2c1-c1cccnc1)C(=O)O [Example 8]",
    "readout.kind": "remaining activity at 10 µM",
    "units.symbol": "%",
    "readout.number": 61.3
  },
  {
    "molecule": "Cc1cc(-c2c(SC(C)(C)C(=O)O)ccc3cnsc23)ccc1C#N [Example 88]",
    "readout.kind": "remaining activity at 10 µM",
    "units.symbol": "%",
    "readout.number": 3.8
  },
  {
    "molecule": "Cc1ccc(-c2c(SC(C)(C)C(=O)O)ccc3cnsc23)cc1 [Example 74]",
    "readout.kind": "remaining activity at 10 µM",
    "units.symbol": "%",
    "readout.number": 6.8
  }
]

input: Specify reported remaining activity at 10 µM for the molecule shown: CC(C)(C)C(Sc1ccc2cnsc2c1-c1ccc(C#N)cc1)C(=O)O (centres unmarked) [Example 114]
output: 5.8

====

biological target: URAT1 (Homo sapiens (Human)); test: Uptake of [14C] uric acid using HEK-URAT1; type: cell-based; conditions: 2 min; [14C] uric acid uptake into URAT1 stably expressed HEK293 cells, 10 μM test compound, 5 μM uric acid, 2 minutes, 37° C.; uptake without test compound = 100%; read-out: % control (10 μM)
t if remaining activity at 10 µM is below 50%. f if not; exact matches included in f.

[
  {
    "molecule": "CC(C)(Sc1ccc2nc(C(F)(F)F)sc2c1-c1ccc(C#N)cc1)C(=O)O [Example 60]",
    "class.label": "f"
  },
  {
    "molecule": "C/C(=C\\C(=O)O)Sc1ccc2ccccc2c1-c1ccc(C#N)cc1 [Example 116]",
    "class.label": "t"
  },
  {
    "molecule": "CC(C)(Oc1ccc2ccccc2c1-c1ccc(C#N)c2ccccc12)C(=O)O [Example 2]",
    "class.label": "t"
  },
  {
    "molecule": "CC(C)(Sc1ccc2ccccc2c1-c1ccc(C#N)c2ccccc12)C(=O)O [Example 4]",
    "class.label": "t"
  }
]

Continue with the molecule presented below.
input: is_below(remaining activity at 10 µM, 50%) for Cc1nsc2c(-c3ccc(C#N)cc3)c(SC3(C(=O)O)CCC3)ccc12 [Example 112] ?
output: t

These measurements were taken from patent US10173990B2.
